EXPERIMENT: Plasma pharmacokinetics of AVR-48 after iv dosing in preterm lambs
Type: in vivo, lamb
REPORTED_CONDITIONS: 3.0 mg/kg/dose iv, lamb plasma; read-out: Cmax
MEASURED_PROPERTY: Cmax (µM)
Answers are plain numbers, in µM.

Cmax reported for this compound CC(=O)NC1C(Oc2ccc([N+](=O)[O-])cc2)OC(CO)C(O)C1O (stereo not shown) [AVR-48] : 10.7
